Every entry's value here was drawn from PubChem BioAssay AID1996.

details: buffer; pH 7.4; 200.0 µM
The entries below come with measured solubility kinetic values attached.

Quick one: solubility kinetic of Cc1ccc(C)c(NC(=O)CN(C)C(=O)c2cccc(Oc3ccccc3)c2)c1 ?
31.1 µg/mL

Record: O=C(CN1C(=O)NC2(CCCCC2)C1=O)Nc1ccc(F)cc1
> 47.9 µg/mL

Consider next the compound O=C1CN(C(=O)COC(=O)c2c(F)cccc2Cl)c2ccccc2N1 in the same way.
50 µg/mL

Also O=c1c2ccccc2[nH]c(=S)n1CCN1CCCCC1 , if possible.
> 43.4 µg/mL

***
What does the record list as solubility kinetic for CC1C(=O)N2CCCc3cc(NC(=O)C(=O)NCc4cccnc4)cc1c32 (configuration not stated) ?
> 54.7 µg/mL

Please answer likewise for COc1cccc(CNCc2ccco2)c1O.O=C(O)C(=O)O
> 48.5 µg/mL

Field entry: O=C(O)c1ccc(Cn2ccc3ccccc32)o1
> 36.2 µg/mL

And for CCC1(CC)Nc2ccccc2C(=O)N1c1ccc(OC)cc1 ?
16.5 µg/mL

Another: O=C(CSc1ccc2ccccc2n1)c1ccccc1
1.5 µg/mL

For Cc1ccc(Nc2c(-c3ccc(C)o3)nc3ncccn23)cc1 then?
1.9 µg/mL

Thanks! And COc1ccc(-c2csc(N)n2)cc1F ?
23.8 µg/mL

Could you do the same for COc1ccc(OCC(=O)Nc2nccs2)cc1 , please?
39.1 µg/mL

* * *

conditions: buffer; pH 7.4; 200.0 µM
PARAMETER: log10 solubility kinetic (log10 of the value in µg/mL)
Hey, these are logged values: log10 of solubility kinetic, µg/mL being the unit before logging.

Item under review: O=C(COC(=O)[C@H](Cc1ccccc1)NC(=O)c1ccco1)Nc1ccccc1OC(F)F . Reported log10 solubility kinetic?
1.81

Repeat for the following compound: CC(=O)Nc1ccc(OCC(=O)Nc2ccc(Cl)c(S(=O)(=O)N3CCOCC3)c2)cc1
1.03

Same again, this time with COc1ccccc1N1CCN(CCN2C(=O)C3CCCN3C2=O)CC1 (centres undefined)
1.61

* * *

settings: buffer; pH 7.4; 200.0 µM
Known log10 solubility kinetic of a selection of molecules
The figures below represent log10 of solubility kinetic, where solubility kinetic is stated in µg/mL.

Below are worked cases with known answers.
Request the reported log10 solubility kinetic associated with CC(=O)OC(C(=O)NC1CCCCC1)c1ccccc1Cl (stereo not given)
1.59

Then COc1ccc(-c2nc(S(=O)(=O)c3ccccc3)c(NCCCN3CCOCC3)o2)cc1 ?
1.83

Another molecule: CC(C)CCSc1nc2ccccc2[nH]1
1.03

***
Which log10 solubility kinetic is listed for COc1ccc(CN2CC[C@@H](N3CCOCC3)[C@H](O)C2)cc1F ?
1.64

And then Cc1cccc(NCc2ccc([N+](=O)[O-])s2)c1 , what is it?
1.18

Also Cc1ccc(OCC(O)CNCc2ccccc2)cc1C (stereo not given) ?
1.56

Okay, and CCOC(=O)C1(CC2CC2)CCN(Cc2ccc(C(=O)OC)cc2)CC1 ?
1.63

* * *

Below, each entry is listed with its recorded solubility kinetic.
details: buffer; pH 7.4; 200.0 µM
All answers are understood in µg/mL, so give the number only.

Fill blank: measured solubility kinetic of the compound Cc1ccc(N2C(=O)N(c3ccc(C)cc3)C3CS(=O)(=O)CC32)cc1 (stereo not drawn) is ____.
12.9

And Cc1cc(OCc2nc3ccccc3s2)ccc1N ?
30.6

What do you get for COc1ccccc1NC(=S)N(Cc1cccnc1)Cc1ccco1 ?
48.3

Record: O=C1CC(Sc2ccc(Cl)cc2)C(=O)N1Cc1ccncc1 (stereo not drawn)
18.9

---
Please give the measured solubility kinetic for this compound: Cc1onc(-c2ccccc2)c1CNS(=O)(=O)c1ccccc1
44

Entry to check: COc1cc(C)c(CN2CCC(Cc3ccccc3)CC2)cc1C
26.4

How about Clc1ccc(-c2nc3ccccc3[nH]2)cn1 ?
31.8

Also, CNc1c(-n2cc(C(=O)OC)c(C(=O)OC)c2C(=O)OC)c(=O)n(C)c(=O)n1C please.
56.7

Also check CC1(c2ccccc2)CC(C)(C)N2C(=O)Cc3cccc1c32 (stereo not drawn)
6

Thanks! And Cc1cc(OCC(=O)N(C)Cc2ccccc2)ccc1Br ?
22.7

Same for Cc1cccc2c1NC(=O)C21OCC(CO)([N+](=O)[O-])CO1 (stereo not drawn)
24.8

* * *

conditions: buffer; pH 7.4; 200.0 µM
The entries below come with measured solubility kinetic values attached.

Examples from the recorded data:
Name the reported solubility kinetic value associated with the molecule Nc1cc(=O)[nH]c(SCC(=O)Nc2cccnc2Cl)n1
> 46.8 µg/mL

Next entry: C[N+]1(C)CCCC(OC(=O)C(O)(c2ccccc2)c2ccccc2)C1.[Br-] (stereo not given)
> 63.1 µg/mL

// repeat for CN(CC(=O)Nc1ccc2c(c1)OCO2)CC(=O)Nc1ccc(F)c(F)c1F and report
> 59.3 µg/mL

---
Entry under review: OC[C@H]1O[C@@H](n2cnc3c(Nc4ccccc4)ncnc32)[C@H](O)[C@@H]1O . Reported solubility kinetic?
> 51.5 µg/mL

Now the same for CCOc1ccc(CCNC(=O)c2cc(C)on2)cc1OCC
> 47.8 µg/mL

* * *

settings: buffer; pH 7.4; 200.0 µM
A collection of compounds and their measured solubility kinetic

Fill blank: measured solubility kinetic of the compound O=C(NC1CCN(c2ncccn2)CC1)c1c(F)cccc1F is ____.
> 47.7 µg/mL

***
Could you share which solubility kinetic value was measured for OCC(O)C1OC(Nc2ccc(Cl)cc2)C(O)C1O (stereo not drawn) ?
> 43.5 µg/mL

Quick one: CCCN1CCN(S(=O)(=O)c2ccc3c(c2)OCCO3)CC1
> 49 µg/mL

* * *

settings: buffer; pH 7.4; 200.0 µM
Known solubility kinetic of a selection of molecules

Example cases with answers are listed next.
GET /values?readout=solubility kinetic&item= CCC(=NCCCn1ccnc1)c1c(O)n(-c2ccccc2)c(=O)[nH]c1=O
> 55.1 µg/mL

Try the molecule CC(=O)N1CCN(c2ncnc3ccccc23)CC1
> 38.4 µg/mL

And then C=CCOc1cccc(CNc2cccc(C(=O)O)c2)c1 , what is it?
> 42.5 µg/mL

Next molecule up: NC(=O)c1cc(S(=O)(=O)N2CCOCC2)cs1
> 41.4 µg/mL

Further cases:
May I ask what solubility kinetic has been recorded for Cn1c(N)c(C(=O)COC(=O)Cc2ccccc2)c(=O)n(C)c1=O ?
> 49.7 µg/mL

Entry Nn1c(SCC(=O)NC2CCCc3ccccc32)nnc1C1CC1 (stereo not given) please
> 51.5 µg/mL

Check CC(C(=O)OCC(=O)NC1CCCCC1)N1C(=O)c2ccccc2C1=O (stereo not given) too.
> 53.8 µg/mL

One more molecule: COc1ccccc1CC(=O)NCCCc1ccccc1
> 42.5 µg/mL

Can you handle COc1ccc(NC(=O)c2cc3ccc(O)cc3o/c2=N\O)cc1 next?
< 0.3 µg/mL

Would you kindly repeat that for CN(C)CCC(=O)c1ccc(F)cc1.Cl ?
> 34.8 µg/mL

Same read-out for Cc1ccccc1-n1c(-c2ccoc2)nc2ccccc2c1=O ?
> 45.3 µg/mL

Next molecule up: Cc1ccc(C(=O)N/N=C\c2ccccn2)cn1
> 36 µg/mL

What about this molecule? O=C(c1c[nH]c2ccccc12)N1CCN(c2ccccc2)CC1
> 45.8 µg/mL

And then C=CCN(CC(=O)Nc1cccnc1)S(=O)(=O)c1ccc(Cl)cc1 , what is it?
> 54.9 µg/mL

Follow-up item: O=C(Nc1cccc2ncccc12)c1ccc([N+](=O)[O-])o1
> 42.5 µg/mL

* * *

settings: buffer; pH 7.4; 200.0 µM
PARAMETER: solubility kinetic

Example entries and their recorded answers appear below.
Which solubility kinetic value is on record for CCc1ccc(OCCCC(=O)Nc2cccc(C(=O)O)c2)cc1 ?
> 49.1 µg/mL

Same question for Cc1noc(C)c1CSCC(=O)Nc1ccc(C#N)c(Cl)c1 please.
> 50.4 µg/mL

Next entry: COc1ccc(-n2ncc3c(=O)n(CC(C)=O)cnc32)cc1
> 44.7 µg/mL

Follow-up item: Cc1cc(Cl)nc(-c2ccccc2O)n1
< 0.2 µg/mL

Cool, now O=C(CN1C(=O)NC2(CCCCC2)C1=O)NCCc1ccccc1
> 49.4 µg/mL

Further cases:
Fill in: solubility kinetic of COC(=O)c1cn(C(=O)c2cccc3ccccc23)c2ccccc12 is ___
< 0.7 µg/mL

How about this compound: Cc1ccc(/C=N/NC(=O)CN2CCN(Cc3ccccc3Cl)CC2)o1
> 56.2 µg/mL

Item: Cc1c(NS(=O)(=O)c2cc(C(=O)NCc3cccnc3)ccc2Cl)c(=O)n(-c2ccccc2)n1C
> 76.8 µg/mL

Also O=C(OCC(=O)N1CCCCC1)c1cc(=O)[nH]c2ccccc12 , if possible.
> 47.2 µg/mL

Item: CN(C)S(=O)(=O)c1cccc(NC(=O)CCNC(=O)Nc2ccccc2)c1
> 58.6 µg/mL
